Recorded values, source ChEMBL document CHEMBL1126403.

- Tested on: Rattus norvegicus
- Assay protocol: Compound was evaluated in vivo for its potency to antagonise serotonin 5-HT-inducedbradycardia in the anesthetized rat
- Format: functional
Reported endpoint: Dose
State the result as a value with its unit after it.

## Input Using the record for CN1C2CCC1CC(Oc1nc3ccccc3s1)C2 (configuration not stated) , state its measured Dose.
## Output 0.1 mg/kg

## Input Let me know recorded Dose for CN1C2CCC1CC(Oc1ccc3ccccc3n1)C2 (configuration not stated) , thanks.
## Output 10 mg/kg

## Input State, in one line, measured Dose of "CN1[C@@H]2CC[C@H]1C[C@@H](OC(=O)c1c[nH]c3ccccc13)C2"
## Output 0.01 mg/kg

## Input Look up and report measured Dose for this entry: Cc1nccn1CC1CCc2c(c3ccccc3n2C)C1=O (configuration not stated)
## Output 0.01 mg/kg

## Input Supply reported Dose belonging to this compound: c1ccc2nc(OC3CN4CCC3CC4)ccc2c1 (configuration not stated)
## Output 3 mg/kg

## Input Please give the documented Dose of "CN1[C@@H]2CC[C@H]1C[C@@H](OC(=O)c1cc(Cl)cc(Cl)c1)C2"
## Output 0.1 mg/kg

## Input Item COc1cc(N)c(Cl)cc1C(=O)NC1CN2CCC1CC2 (configuration not stated) [ZACOPRIDE] : provide Dose
## Output 0.01 mg/kg
